Tested on: Danio rerio Tg(wt1b:EGFP) embryo, pronephros
Experiment: fraction of imaged embryos annotated as normal kidney; higher = less nephrotoxic; extreme values may be limits of the assay
Conditions: 25 µM; exposure: 24-48 hpf
Where a name gives a salt, the structure may show the parent alone.
Exercise: state measured fraction of imaged embryos annotated as normal kidney for each of the molecules provided.
Answers are plain numbers.

Some molecules with recorded fraction of imaged embryos annotated as normal kidney:
CC(C)NCC(O)COc1cccc2[nH]ccc12 (stereo not given)
0.909
Cc1ccc(/C(=C\CN2CCCC2)c2ccccn2)cc1 [Triprolidine hydrochloride]
0.917
Cn1c(=O)c2nc[nH]c2n(C)c1=O [Theophylline monohydrate]
1
CC[N+](C)(C)c1cccc(O)c1 [Edrophonium chloride]
0.833

// next entry
Inquiry: Entry CN1CCCN=C1/C=C/c1cccs1 [Pyrantel tartrate] has what fraction of imaged embryos annotated as normal kidney?
Reply text: 0.917

----------
Could you please report measured glomerular separation for the items listed next?
System: Danio rerio Tg(wt1b:EGFP) embryo, pronephros
Experiment: glomerular separation, fold change vs DMSO control; higher = glomeruli further apart (abnormal)
Settings: 25 µM; exposure: 24-48 hpf
Counter-ions that a name gives are not always drawn.
Answers are plain numbers.

In the examples that follow, each entry is paired with its recorded glomerular separation.
CCN(CC)C(=S)SSC(=S)N(CC)CC
3.4
C=C1C(=O)O[C@H]2[C@H]1CC/C(C)=C/CC[C@@]1(C)O[C@@H]21 [Parthenolide]
2.81
O=C1NCCN1c1ncc([N+](=O)[O-])s1
1.24
CN(C)CCCN1c2ccccc2Sc2ccc(C(F)(F)F)cc21 [Triflupromazine hydrochloride]
0.863
CNNCc1ccc(C(=O)NC(C)C)cc1 [Procarbazine hydrochloride]
1.02
CN1C(C)(C)CCCC1(C)C [Pempidine tartrate]
0.75

Dear reader, for each entry below, please note its glomerular separation.
1. CCCNC(C)C(=O)Nc1ccccc1C (stereo unspecified) [Prilocaine hydrochloride]
2. CCCCc1oc2ccccc2c1C(=O)c1cc(I)c(OCCN(CC)CC)c(I)c1 [Amiodarone hydrochloride]
3. C[C@@H](O[C@H]1OCCN(Cc2n[nH]c(=O)[nH]2)[C@H]1c1ccc(F)cc1)c1cc(C(F)(F)F)cc(C(F)(F)F)c1 [Aprepitant]
4. O=C1NCCN1CCN1CCC(c2cn(-c3ccc(F)cc3)c3ccc(Cl)cc23)CC1
5. CN(C)CCOC(=O)C(c1ccccc1)C1(O)CCCC1 (stereo unspecified) [Cyclopentolate hydrochloride]
6. Cc1onc(-c2ccccc2)c1C(=O)N[C@@H]1C(=O)N2[C@@H]1SC(C)(C)[C@@H]2C(=O)O [Oxacillin sodium]

Reply text:
[1.28, 2, 0.995, 1.45, 0.745, 0.779]

For each of the items listed, what is its glomerular separation?
1. CC(C)NCC(O)c1ccc(O)c(O)c1 (single isomer, unassigned; (+)) [(+)-Isoproterenol (+)-bitartrate salt]
2. CCCC(=O)Nc1ncnc2c1ncn2[C@@H]1O[C@@H]2COP(=O)(O)O[C@H]2[C@H]1OC(=O)CCC [Bucladesine sodium salt]

Reply text:
1. 1.57
2. 0.912

I have 2 compounds here; please give me glomerular separation for each one.
1. CCCCN(CCCC)CCC(O)c1cc2c(Cl)cc(Cl)cc2c2cc(C(F)(F)F)ccc12 (stereo unspecified) [Halofantrine hydrochloride]
2. CC[C@H]1OC(=O)[C@H](C)[C@@H](O[C@H]2C[C@@](C)(OC)[C@@H](O)[C@H](C)O2)[C@H](C)[C@@H](O[C@@H]2O[C@H](C)C[C@H](N(C)C)[C@H]2O)[C@](C)(O)C[C@@H](C)C(=O)[C@H](C)[C@@H](O)[C@]1(C)O

Reply text:
[4.43, 1.19]
